Test: small-molecule microarray binders of probe aNog, primary screen, biochemical, biotinylated probe, 635/667 nm fluorescence (AID 1115);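 note: probe is biotinylated aNog protein used at 0.15 µg/mL for 1 h at 4 C; z-score combines 667 nm fluorescence of each spot with its signal to noise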
Details: higher = more signal
# if value of composite z-score reaches -0.02, tag yes; if it stays below, tag no

Reported composite z-score reaches at least -0.02 for "CCCCC(=C=CC[C@@H](O)c1ccc(OCCO)cc1)C[C@@H](O)c1ccccn1" ?
yes

Please tell me: is the molecule "CC(C)[C@@H](C(=O)O)n1cc(-c2ccccc2)nn1" at or over -0.02 in terms of composite z-score?
no

Is composite z-score at least -0.02? Consider Cc1ccccc1C(O)C1C=CC2C(=O)N(c3ccccc3)C(=O)C2N1Nc1ccccc1F (stereo not drawn)
yes

hey, is composite z-score for this one >= -0.02? "CO[C@H]1O[C@H](CO)[C@@H](OC(=O)Nc2ccc(C(F)(F)F)cc2)[C@H](OC(=O)Nc2ccccc2-c2ccccc2)[C@H]1OC(=O)Nc1ccccc1-c1ccccc1"
no

hey, is composite z-score for this one >= -0.02? CCCCCN1CC=CC23O[C@@H]4C=CCOC(=O)[C@@H]4[C@H]2C(=O)N(CCCCCO)[C@@H]3C1=O (stereo partly drawn)
no

Kindly determine if composite z-score recorded for "C=CC[C@]1(C(=O)NCc2ccccc2)COC(c2ccc(OCCCO)cc2)=N1" is above or exactly -0.02.
yes

Quick check: does "COC(=O)[C@@]1(Cc2ccccc2)[C@H]2c3cc(C(=O)N4CCCC4)n(Cc4ccc(C(F)(F)F)nc4)c3C[C@H]2CN1C(=O)c1ccccc1" have composite z-score greater than or equal to -0.02?
yes

Please check the record "CCCCNC(=O)c1ccc(C#C[Si](C)(C)C)c(OC(C)=O)c1" and state if its composite z-score is at or above -0.02.
no
